In this section, each of the molecules is paired with its reported TGI.
# Tested on: U251 CNS
# ASSAY_PROTOCOL: NCI tumour cell line growth inhibition, 48 h
PROPERTY: TGI

{"columns": ["MOLECULE", "TARGET_DESC", "RESULT"],
 "data": [
  ["Nc1ncnc2c1ncn2[C@@H]1O[C@H](COP(=O)(O)OP(=O)(O)OC[C@H]2O[C@@H](OCCCO)[C@H](O)[C@@H]2O)[C@@H](O)[C@H]1O", "U251 CNS", "> 100 µM"],
  ["CCOc1cc(C2SCC(=O)N2c2ccc3c(c2)Oc2c(Cl)c4c(c(Cl)c2=N3)Oc2cc(N3C(=O)CSC3c3ccc(O)c(OCC)c3)ccc2N=4)ccc1O (stereo not drawn)", "U251 CNS", "> 100 µM"],
  ["CCN(CC)CCCNc1n[n+]([O-])c2ccccc2[n+]1[O-]", "U251 CNS", "> 100 µM"],
  ["CCOC(=O)/C(=C\\c1cn(C(C)=O)c2ccccc12)P(C)(=O)OCC (stereo not drawn)", "U251 CNS", "> 100 µM"],
  ["O=c1cc(-c2ccccc2)oc2c1ccc1ccccc12", "U251 CNS", "> 100 µM"],
  ["CCN(CC)CCn1c(=O)c2cc(OC)c(OC)cc2c2ccc3cc4c(cc3c21)OCO4", "U251 CNS", "18.6 µM"],
  ["CCOC(=O)C(NC(=O)c1ccccc1)(c1ccc(S(=O)(=O)Nc2onc(C)c2C)cc1)C(F)(F)F (stereo not drawn)", "U251 CNS", "> 100 µM"],
  ["COc1ccc(CNCCCN2C(=O)c3ccc4c5c(ccc(c35)C2=O)C(=O)N(CCCNCc2ccc(OC)c(OC)c2OC)C4=O)c(OC)c1OC", "U251 CNS", "0.174 µM"]
]}

---

Listed below: TGI values for each entry.
# Test system: OVCAR-5 ovarian
# ASSAY_PROTOCOL: NCI tumour cell line growth inhibition, 48 h

{"columns": ["COMPOUND", "TARGET_DESC", "BOUND_OPERATOR", "TGI / µM"],
 "data": [
  ["N#Cc1ccc([N+](=O)[O-])cc1NC(N)=S", "OVCAR-5 ovarian", ">", 100],
  ["CC1=C2[C@@H](CC1)[C@]1(C)O[C@@](C(C)C)(C[C@H]1OC(=O)CO)[C@H]2OC(=O)CCCc1ccccc1", "OVCAR-5 ovarian", "=", 30],
  ["COc1cc2c(c(OC)c1OC)-c1c(c3ccc([N+](=O)[O-])cc3c(=O)n1CCCBr)C2=O", "OVCAR-5 ovarian", ">", 100],
  ["CSc1ccc2c(cc1=O)C(NC(=O)c1ccccc1)CCc1cc(O)c(O)c(O)c1-2 (stereo unspecified)", "OVCAR-5 ovarian", ">", 100],
  ["O=C1/C(=C/c2ccc(F)cc2)CN(C(=O)C(Cl)Cl)C/C1=C\\c1ccc(F)cc1", "OVCAR-5 ovarian", "=", 1.1],
  ["C/C=C\\C(CC(=O)NCCC1CN(C(=O)OCc2ccccc2)c2ccccc21)CC(=O)OC (stereo unspecified)", "OVCAR-5 ovarian", ">", 100],
  ["CCOC(=O)c1c2c(n3ccc(NC(=O)CCN4CCCCC4)cc13)C(=O)c1ncccc1C2=O", "OVCAR-5 ovarian", "=", 3.2],
  ["Cc1cccc2c(NCCN(C)C)c3cccc(C(=O)NCCN(C)C)c3nc12", "OVCAR-5 ovarian", "=", 14.4],
  ["O=C(Nc1cccc(C(F)(F)F)c1)c1ccc(NC2=C(Cl)C(=O)N(Cc3ccccc3)C2=O)cc1", "OVCAR-5 ovarian", "=", 34.5],
  ["O=c1[nH]nc(CNc2ccc(Cl)cc2Cl)c2ccccc12", "OVCAR-5 ovarian", ">", 100],
  ["CC1(C)N=c2cc3c(cc2N1c1ccc(Cl)cc1)=Nc1ccccc1N3c1ccc(Cl)cc1", "OVCAR-5 ovarian", ">", 100]
]}

---

# System: NCI/ADR-RES ovarian
# ASSAY_PROTOCOL: NCI tumour cell line growth inhibition, 48 h

{"columns": ["MOLECULE", "TGI"],
 "data": [
  ["Cc1ccc2nc(CN(CCO)CCO)cc(=O)n2c1", "> 100 µM"],
  ["COn1oc(=O)c2ccccc21", "> 100 µM"],
  ["Cc1ccc(N=C2OP(=O)(Nc3ccc(C)cc3)Oc3ccccc32)cc1 (stereo unspecified)", "> 100 µM"],
  ["CC[C@]1(Cc2ccc(OC)c(OC)c2)C2CC(C(=O)OC)ON2O[C@H](OCc2ccccc2)[C@@H]1OC(C)=O (stereo partly specified)", "> 100 µM"],
  ["CC(C)=Cc1cccc2[nH]c(O)c(N=Nc3ccc(S(N)(=O)=O)cc3)c12", "> 25 µM"],
  ["C=CCc1cccc2cc(C(=O)Nc3ccc(C)cc3)c(=N)oc12", "> 100 µM"],
  ["CSc1nc(-c2ccccc2)nc(C(C#N)C#N)n1", "> 100 µM"],
  ["C=CCOc1ccc(N)c([N+](=O)[O-])c1", "> 100 µM"],
  ["COC(=O)C1=C(C(=O)ON)[C@@H]2C=C[C@@]1([C@@H](Cc1ccccc1)Nc1ccccc1)O2", "35.9 µM"],
  ["COc1c(C)c(OC)c(C(=O)CC(C)C)c(OC)c1C", "> 100 µM"],
  ["COc1ccccc1NC(=O)CC(=O)n1nc(C)c(N=Nc2ccccc2Cl)c1C", "> 100 µM"]
]}

---

# Test system: KM20L2 colon
# ASSAY_PROTOCOL: NCI tumour cell line growth inhibition, 48 h
PROPERTY: TGI

{"columns": ["COMPOUND", "RESULT"],
 "data": [
  ["CC(C)C1=CC2=CC[C@@H]3[C@](C)(CCC[C@@]3(C)C(=O)O)[C@H]2CC1", "> 100 µM"],
  ["CCC[CH2][Sn]1([CH2]CCC)[O]CC[S]1", "2.75 µM"],
  ["CC(C)c1cccc(C(C)C)c1NC(=O)C(=O)C1CCC2=C(Sc3ccccc3N2)C1=O (stereo not given)", "> 100 µM"],
  ["CN/N=C(\\C)C(CN1CCCCC1)C(C1=C(O)c2ccccc2OC1)c1ccccc1 (stereo not given)", "> 100 µM"],
  ["[Co].[O-]c1cccnc1C=Nc1ccccc1.[OH3+]", "> 100 µM"],
  ["CC(C)(C)OC(=O)N1CC(C)(C)N2C(=O)C3(CCCO3)C12 (stereo not given)", "> 100 µM"],
  ["Cc1cccc(N=Cc2ccc(N(CCC#N)S(=O)(=O)c3ccccc3)cc2C)c1", "> 100 µM"],
  ["O=S1(=O)c2cc(S(=O)(=O)n3ccnc3)ccc2NC2=NCCCN21", "41.7 µM"],
  ["CN1c2c(nc(N)[nH]c2=O)NCC1CCNc1ccc(C(=O)NC(CCC(=O)O)C(=O)O)cc1 (stereo not given)", "2280 µM"],
  ["O=C(O)CCSC(=O)Nc1cccc2ccccc12", "> 100 µM"]
]}

---

Reported TGI is given for each of the following molecules.
# Test system: SF-268 CNS
# ASSAY_PROTOCOL: NCI tumour cell line growth inhibition, 48 h
Peptide text beside a SMILES is read from it. * marks the point of attachment. X34 = O=C(c1ccc(-c2ccc(Cl)cc2Cl)o1)*

{"columns": ["MOLECULE", "TGI"],
 "data": [
  ["Cn1ccc(=NS(=O)(=O)c2ccccc2)cc1", "> 100 µM"],
  ["O=C1/C(=C/c2ccc(F)cc2)CN(C(=O)C(Cl)Cl)C/C1=C\\c1ccc(F)cc1", "1.47 µM"],
  ["COc1cc(NC(C)=O)ccc1C(=O)N/N=C/c1ccco1", "> 100 µM"],
  ["CCOC(=O)C(NC(=O)c1ccccc1)(c1ccc(S(=O)(=O)Nc2onc(C)c2C)cc1)C(F)(F)F (configuration not stated)", "> 100 µM"],
  ["Brc1ccc(C=NC23CC4CC(CC(C4)C2)C3)cc1", "> 100 µM"],
  ["CN1c2c(nc(N)[nH]c2=O)NCC1CCNc1ccc(C(=O)NC(CCC(=O)O)C(=O)O)cc1 (configuration not stated)", "2710 µM"],
  ["COc1nc2ccc(CNc3ccc(C(=O)NC(CCC(=O)O)C(=O)O)cc3)cc2nc1OC (configuration not stated)", "> 100 µM"],
  ["O=c1[nH]nc(CNc2ccc(Cl)cc2Cl)c2ccccc12", "44.7 µM"],
  ["O=C(Nc1n[nH]c2nc(-c3ccc(O)cc3)c(Br)cc12)C1CC1", "16.5 µM"],
  ["COC(=O)C(CC(C)C)NC(=O)C(Cc1ccccc1)NC(=O)C1CCCN1C(=O)C(CO)NC(=O)c1ccc(-c2ccc(Cl)cc2Cl)o1 (configuration not stated) (X34-SPFL-OMe; configuration not given here)", "> 100 µM"],
  ["CSc1nc(NC2OCC(OC(C)=O)C(OC(C)=O)C2OC(C)=O)c2c(n1)OCC2=O (configuration not stated)", "> 100 µM"],
  ["CC(C)c1cccc(C(C)C)c1NC(=O)C(=O)C1CCC2=C(Sc3ccccc3N2)C1=O (configuration not stated)", "> 100 µM"],
  ["COc1ccccc1/C=N/Nc1nnc2c3ccccc3c3ncccc3c2n1", "> 100 µM"],
  ["CC1SC2=NC3=C(c4ccccc4C3=O)C(c3ccccc3Cl)N2C1=O (configuration not stated)", "> 100 µM"],
  ["CCOC(=O)Nc1ccc2c(c1)C(=O)N(CC)c1ccccc1O2", "> 100 µM"],
  ["O=C(O[C@H]1[C@@H]2C=CO[C@@H](OC3OC(CO)C(O)C(O)C3O)[C@@H]2[C@@]2(CO)O[C@@H]12)c1ccc(O)c(O)c1 (some centres not stated)", "> 100 µM"],
  ["Cc1cccc(N=Cc2ccc(N(CCC#N)S(=O)(=O)c3ccccc3)cc2C)c1", "> 100 µM"],
  ["CCN(CCO)CCCC(C)Nc1ccnc2cc(Cl)ccc12 (configuration not stated)", "> 100 µM"],
  ["CO/N=C(/C(=O)Nc1c[n+](CC(=O)[O-])cs1)c1csc(N)n1", "> 100 µM"],
  ["Cc1c[nH]c(=O)n(Cc2nnc(CCC(=O)c3nc4ccccc4[nH]3)o2)c1=O", "> 100 µM"],
  ["O=C1/C(=C/c2ccccc2)CCc2ccc([N+](=O)[O-])cc21", "> 100 µM"],
  ["Cc1ccc(/C=N/NS(=O)(=O)c2ccccc2)cc1C", "> 100 µM"]
]}
